Taken from patent US20260250737A1.

Tested on: SmLux
PROTOCOL NOTES: Computationally generated LgLux variants expressed in E. coli, tested in lysates with SmLux and substrate 1c
Type: biochemical
ASSAY CONDITIONS: 50 uM substrate 1c, before SmLux peptide addition
RECORDED ENDPOINT: Baseline Signal (Normalized by expression)

Answered cases to consult:
* 5292 (protein) MTPEEIIENVKNFYAALASGDLEKAKALFDPGVTITLWDGTTFTSVEEFRKWFEEQFKTSKDALREIKSIEVEGDVVRVLVRLTFVRDGEVQEVDLLQLFKFV | 168.6
* 5281 (protein) MTPEEIRANVEAFYAALASGDLEAAKSLFDPGVTITLWDGTTFTSVEEFRKWFEEQFKTSKDALREIVSMEIEGDTVRVLVRLTFVRDGKVEEVDLLQLFKFV | 125.6
* 5288 (protein) MTPEAIIANVKAFYAALASGDLAAAKALFDPGVTITLWDGTTFTSVEEFRAWFEEQFKTSKDALREIESMEVEGDTVRVLVRLTFVRDGKEEVVDLLQLFKFV | 170.8

(Q) Look at this molecule and give its reported Baseline Signal (Normalized by expression). 5280 (protein) MTPEEIRANVRAFYAALASGDWEAARALFDPGVTITLWDGTTFTSVEEFRAWFEKQFQTSKDALREIVALEVEGDVVRVLVRLTFVRDGVEQEVDLLQLFKFV
(A) 129.2
